Origin of the recorded values: ChEMBL document CHEMBL1949628

- TARGET OR SYSTEM: Baculoviral IAP repeat-containing protein 2 (Homo sapiens)
- EXPERIMENTAL DETAILS: Antagonist activity at GST-tagged BIR3 domain of cIAP1 using AbuRPFK-5FAM after 20 mins by fluorescence polarization assay
Task for the reader: assign each of the following compounds its reported IC50.
Your answer should be a plain number; it is taken to be in nM.

Give the reported IC50 for "CN[C@@H](C)C(=O)N[C@H](C(=O)N[C@H]1CCCN(CCc2ccccn2)C1)C(C)(C)C" (system: Baculoviral IAP repeat-containing protein 2 (Homo sapiens)).
301

Give the reported IC50 for "CN[C@@H](C)C(=O)N[C@H](C(=O)N[C@H]1CCCN(C(=O)c2ccccc2)C1)C1CCCCC1" (system: Baculoviral IAP repeat-containing protein 2 (Homo sapiens)).
3360

Give the reported IC50 for "CN[C@@H](C)C(=O)N[C@H](C(=O)N[C@H]1CCCCN(Cc2ccccc2)C1)C1CCCCC1" (system: Baculoviral IAP repeat-containing protein 2 (Homo sapiens)).
270

Give the reported IC50 for "CN[C@@H](C)C(=O)N[C@H](C(=O)N[C@H]1CCCN(CCc2ccccc2)C1)C(C)(C)C" (system: Baculoviral IAP repeat-containing protein 2 (Homo sapiens)).
26

Give the reported IC50 for "CN[C@@H](C)C(=O)N[C@H](C(=O)N[C@H]1CCCN(CCc2ccc(F)cc2)C1)C(C)(C)C" (system: Baculoviral IAP repeat-containing protein 2 (Homo sapiens)).
20

Give the reported IC50 for "CN[C@@H](C)C(=O)N[C@H](C(=O)N[C@H]1CCCN(S(=O)(=O)c2ccccc2)C1)C(C)(C)C" (system: Baculoviral IAP repeat-containing protein 2 (Homo sapiens)).
5750

Give the reported IC50 for "CN[C@@H](C)C(=O)N[C@H](C(=O)N[C@H]1CCCN(S(=O)(=O)Cc2ccccc2)C1)C(C)(C)C" (system: Baculoviral IAP repeat-containing protein 2 (Homo sapiens)).
3890
